Reference for the values: patent US6967237B2

Molecular target: human GHSR1a (Homo sapiens, UniProt Q92847)
Sequence (Q92847 whole entry): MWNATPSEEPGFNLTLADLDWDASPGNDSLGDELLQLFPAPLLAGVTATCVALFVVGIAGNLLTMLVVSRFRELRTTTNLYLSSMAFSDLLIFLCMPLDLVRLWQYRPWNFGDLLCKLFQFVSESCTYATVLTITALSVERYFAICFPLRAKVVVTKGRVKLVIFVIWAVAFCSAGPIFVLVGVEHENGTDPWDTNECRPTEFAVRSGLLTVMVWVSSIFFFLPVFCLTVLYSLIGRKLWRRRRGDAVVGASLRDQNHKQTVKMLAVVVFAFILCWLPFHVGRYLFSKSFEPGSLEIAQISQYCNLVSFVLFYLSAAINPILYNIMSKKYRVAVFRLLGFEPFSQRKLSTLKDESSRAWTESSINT
Assay: Aequorin bioluminescence functional assay (intracellular calcium mobilization) in 293AEQ17/GHSR1a cells
Format: cell-based
Conditions: at 10 μM, relative to ghrelin; read-out: Functional Assay % activation at 10 μM relative to ghrelin
Where a SMILES comes first, the peptide text is derived from it. The star is where a group is joined. Octanoyl = CCCCCCCC(=O)*
Provide the recorded activation at 10 µM for the entries that follow.
One number for each entry, in %.

Solved cases below.
compound	property label	experimental result
CCCCCCCC(=O)OC[C@H](NC(=O)[C@H](CO)NC(C)=O)C(=O)N[C@@H](Cc1ccccc1)C(N)=O [Compound 26, Ac-SXF-NH2] (Ac-Ser-Ser(Octanoyl)-Phe-NH2)	activation at 10 µM	28
CCCCCCCC(=O)OC[C@H](NC(=O)[C@H](CO)NC(=O)CN)C(=O)N[C@@H](Cc1ccccc1)C(=O)N[C@@H](CC(C)C)C(N)=O [Compound 21, GSXFL-NH2] (H-GSS(Octanoyl)FL-NH2)	activation at 10 µM	96

What does the data say about its activation at 10 µM? Entry: CCCCCCCC(=O)OC[C@H](NC(=O)[C@H](CO)NC(=O)CN)C(=O)N[C@@H](Cc1ccccc1)C(N)=O [Compound 22, GSXF-NH2] (H-GSS(Octanoyl)F-NH2)
91

###

Target: UniProtKB Q92847
Assay: Competitive binding assay with [35S]-MK-677 on membranes of HEK 293-aequorin cells transfected with human GHS receptor
Settings: competition with 0.05 nM [35S]-MK-677; three separate assays in triplicate
Where a SMILES comes first, the peptide text is derived from it. The star is where a group is joined. Octanoyl = CCCCCCCC(=O)*
property label: IC50
Reply with a number, then the unit it belongs to.

What does the data say about its IC50? Entry: CCCCCCCC(=O)OC[C@H](NC(=O)[C@H](CO)NC(=O)CN)C(=O)N[C@@H](Cc1ccccc1)C(N)=O [Compound 22, GSXF-NH2] (H-GSS(Octanoyl)F-NH2)
889 nM
